target: Protein farnesyltransferase (Bos taurus, UniProt P29702+P49355); assay: In vitro inhibition of bovine Farnesyl transferase
Measurement name: log10(IC50) (log10 of the value in µM)

Compound: CC(C)=CCC/C(C)=C/CC/C(C)=C/CC1C(=O)N(Cc2ccccc2)C(=O)N1Cc1cncn1Cc1ccc(C#N)cc1 (stereo not drawn)
Value reported: -0.70
--
Compound: CC(C)=CCC/C(C)=C/CC/C(C)=C/CC(NCc1cncn1Cc1ccc(C#N)cc1)C(=O)NCc1ccccc1 (stereo not drawn)
Value reported: -2.22
--
Compound: CC(C)=CCC/C(C)=C/CC/C(C)=C/CC(C(=O)NCc1ccccc1)N(Cc1cncn1C)S(=O)(=O)c1ccccc1 (stereo not drawn)
Value reported: -0.17
--
Compound: CC(C)=CCC/C(C)=C/CC/C(C)=C/CC(C(=O)NCc1ccccc1)N(Cc1cncn1Cc1ccc(C#N)cc1)S(=O)(=O)c1ccccc1 (stereo not drawn)
Value reported: -1.40
--
Compound: CC(C)=CCC/C(C)=C/CC/C(C)=C/CC1C(=O)N(Cc2ccccc2)C(=O)N1Cc1cncn1C (stereo not drawn)
Value reported: -0.15
--
Compound: CC(C)=CCC/C(C)=C/CC/C(C)=C/CC(C(=O)N[C@@H](Cc1ccccc1)C(=O)O)N(Cc1cncn1C)S(=O)(=O)c1ccccc1 (stereo partly drawn)
Value reported: -0.33
--
Compound: CC(C)=CCC/C(C)=C/CC/C(C)=C/CC(C(=O)N[C@@H](Cc1ccccc1)C(=O)O)P(=O)(O)O (stereo partly drawn)
Value reported: -1.08

----------
Parameter pIC50: see the listing below.
target: Protein farnesyltransferase (Homo sapiens, UniProt P49354+P49356); experiment: Inhibition of farnesylation of H-Ras in DLD-1 cells; format: functional, cell-based
pIC50: −log10 of the molar value.

Molecule: CC(C)=CCC/C(C)=C/CC/C(C)=C/CC(C(=O)N[C@@H](Cc1ccccc1)C(=O)O)P(=O)(O)O (stereo partly specified)
Value operator: <
pIC50: 5.00

Molecule: CC(C)=CCC/C(C)=C/CC/C(C)=C/CC(C(=O)NCc1ccccc1)N(Cc1cncn1Cc1ccc(C#N)cc1)S(=O)(=O)c1ccccc1 (stereo unspecified)
Value operator: <
pIC50: 5.00

Molecule: CC(C)=CCC/C(C)=C/CC/C(C)=C/CC(NCc1cncn1Cc1ccc(C#N)cc1)C(=O)N[C@@H](Cc1ccccc1)C(=O)O (stereo partly specified)
Value operator: =
pIC50: 5.30

Molecule: CC(C)=CCC/C(C)=C/CC/C(C)=C/CC(C(=O)N[C@@H](Cc1ccccc1)C(=O)O)N(Cc1cncn1C)S(=O)(=O)c1ccccc1 (stereo partly specified)
Value operator: =
pIC50: 5.00

Molecule: CC(C)=CCC/C(C)=C/CC/C(C)=C/CC(C(=O)NCc1ccccc1)N(Cc1cncn1C)S(=O)(=O)c1ccccc1 (stereo unspecified)
Value operator: =
pIC50: 6.00

Molecule: CC(C)=CCC/C(C)=C/CC/C(C)=C/CC(NCc1cncn1Cc1ccc(C#N)cc1)C(=O)NCc1ccccc1 (stereo unspecified)
Value operator: =
pIC50: 6.00
